System: MvfR-regulated small molecules in PA14
Experiment: Production of HAQs, 2-AA, DHQ and AA in PA14 cultures (LC-MS)
Details: Pseudomonas aeruginosa, PA14, read-out: % Production HHQ
Measured parameter: activity at 50 µM (%)
A number alone suffices; assume %.

Compound	Units symbol	activity at 50 µM
N#Cc1ccc(NC(=O)CC(=O)Nc2ccc(C#N)cc2)cc1 [D43]	%	22
N#Cc1ccc(NC(=O)CC(=O)Nc2ccc(C#N)nc2)cc1 [D77]	%	10
N#Cc1ccc(NC(=O)CC(=O)Nc2ccc(C(F)(F)F)cc2)cc1 [D69]	%	6
N#Cc1ccc(NC(=O)CC(=O)Nc2ccc(Cl)cc2)cc1 [D41]	%	2
N#Cc1ccc(NC(=O)CC(=O)Nc2ccc(C#N)c(Cl)c2)cc1 [D95]	%	5
N#Cc1ccc(NC(=O)C(F)C(=O)Nc2ccc(Oc3ccccc3)cc2)cc1 (stereo not drawn) [D88]	%	1
N#Cc1ccc(NC(=O)CC(=O)Nc2ccc(Br)cc2)cc1 [D42]	%	2
N#Cc1ccc(NC(=O)CC(=O)Nc2ccc(Oc3ccccc3)cc2)cc1 [D57]	%	58

Pending compound:
IN: Output measured activity at 50 µM for this item: CC(C(=O)Nc1ccc(C#N)cc1)C(=O)Nc1ccc(C#N)cc1 [D80]
OUT: 8

###

Tested on: MvfR-regulated small molecules in PA14
Test: Production of HAQs, 2-AA, DHQ and AA in PA14 cultures (LC-MS)
Settings: PA14, 50µM inhibitor
Each entry below carries its reported % Production PQS.
Answer format: value, then unit.

Use these answered entries as a reference point.
Molecule	% Production PQS
Cc1cc(F)ccc1NC(C)C(=O)Nc1ccc(C#N)cc1 (stereo not drawn)	115%
N#Cc1ccc(NC(=O)CCC(=O)Nc2ccc(F)cc2)cc1	94%
N#Cc1ccc(NC(=O)C(=O)Nc2ccc(F)cc2)cc1	110%
O=C(CC(=O)Nc1ccc([N+](=O)[O-])cc1O)Nc1ccc(Oc2ccccc2)cc1	6%
Cc1ccccc1NCC(=O)Nc1ccc(C#N)cc1	124%

Pending molecule:
IN: Output measured % Production PQS for this item: Cc1cc(F)ccc1N1CCCC(NC(=O)c2ccc(C#N)cc2)C1 (stereo not drawn)
OUT: 96%

###

Test: Solubility in iPBS pH 7.4 by HPLC
Format: physicochemical
Details: isotonic phosphate buffer (iPBS), aqueous with cosolvent or surfactant or cyclodextrin, kinetic from dmso stock; iPBS pH 7.4, HPLC; read-out: Solubility (M) in PBS
Measured parameter: solubility at 4 h

Use these answered entries as a reference point.
Compound	Result
N#Cc1ccc(NC(=O)CC(=O)Nc2ccc(C#N)cc2)cc1	1.1e-05 M
O=C(Nc1ccc(Oc2ccccc2)cc1)C(F)C(=O)Nc1ccc(C(F)(F)F)cc1 (stereo not drawn)	5e-06 M
N#Cc1ccc(NC(=O)C(F)C(=O)Nc2ccc(Oc3ccccc3)cc2)cc1 (stereo not drawn)	0.00049 M

Pending compound:
IN: Output measured solubility at 4 h for this item: N#Cc1ccc(NC(=O)CC(=O)Nc2ccc(Cl)cc2)cc1
OUT: 1.3e-05 M

###

Test system: 16 MDR P. aeruginosa clinical isolates
Assay: Pyocyanin production in MDR clinical isolates
Conditions: Pseudomonas aeruginosa, 18 h, read-out: Pyocyanin production relative to Control, clinical isolate LGR-4327; Control about 100; replicates
Quick rule for you: activity at 10 µM at 20% or higher means Satisfied, lower means Not satisfied.

Use the examples below as a reference point.
Compound	Category
N#Cc1ccc(NC(=O)CC(=O)Nc2ccc(C(F)(F)F)cc2)cc1	Not satisfied
N#Cc1ccc(NC(=O)C(F)C(=O)Nc2ccc(Oc3ccccc3)cc2)cc1 (stereo not shown)	Not satisfied
N#Cc1ccc(NC(=O)CC(=O)Nc2ccc(C#N)c(Cl)c2)cc1	Not satisfied

IN: Please check the record N#Cc1ccc(NC(=O)CC(=O)Nc2ccc(Br)cc2)cc1 and state if its activity at 10 µM is at or above 20%.
OUT: Satisfied

IN: Please check the record N#Cc1ccc(NC(=O)CC(=O)Nc2ccc(Cl)cc2)cc1 and state if its activity at 10 µM is at or above 20%.
OUT: Satisfied

IN: Please check the record O=C(Nc1ccc(Oc2ccccc2)cc1)C(F)C(=O)Nc1ccc(C(F)(F)F)cc1 (stereo not shown) and state if its activity at 10 µM is at or above 20%.
OUT: Satisfied

###

Test system: mvfR mutant constitutively expressing the pqsABCDE operon
Assay type: cell-based
Conditions: Pseudomonas aeruginosa, read-out: DHQ, ΔmvfR-pqsABCD strain; control about 100; single replicates (Figure 4a)
Each entry below carries its reported activity at 50 µM.
A number alone suffices; assume %.

Use these answered entries as a reference point.
Compound	Assay target	activity at 50 µM (%)
N#Cc1ccc(NC(=O)CC(=O)Nc2ccc(C#N)nc2)cc1	mvfR mutant constitutively expressing the pqsABCDE operon	94.5
N#Cc1ccc(NC(=O)CC(=O)Nc2ccc(C(F)(F)F)cc2)cc1	mvfR mutant constitutively expressing the pqsABCDE operon	112
O=C(Nc1ccc(Oc2ccccc2)cc1)C(F)C(=O)Nc1ccc(C(F)(F)F)cc1 (stereo not shown)	mvfR mutant constitutively expressing the pqsABCDE operon	92.5
CC(C(=O)Nc1ccc(C#N)cc1)C(=O)Nc1ccc(C#N)cc1	mvfR mutant constitutively expressing the pqsABCDE operon	101
N#Cc1ccc(NC(=O)CC(=O)Nc2ccc(C#N)c(Cl)c2)cc1	mvfR mutant constitutively expressing the pqsABCDE operon	95.2

IN: Output measured activity at 50 µM for this item: N#Cc1ccc(NC(=O)CC(=O)Nc2ccc(C#N)cc2)cc1
OUT: 103

IN: Output measured activity at 50 µM for this item: N#Cc1ccc(NC(=O)CC(=O)Nc2ccc(Oc3ccccc3)cc2)cc1
OUT: 98.7

###

Target: MvfR protein (MvfRC87) (Pseudomonas aeruginosa, UniProt Q9I4X0)
Construct: The MvfRC87 protein purified as in Xiao et. al., 2006; made in house
Sequence (Q9I4X0 87-332): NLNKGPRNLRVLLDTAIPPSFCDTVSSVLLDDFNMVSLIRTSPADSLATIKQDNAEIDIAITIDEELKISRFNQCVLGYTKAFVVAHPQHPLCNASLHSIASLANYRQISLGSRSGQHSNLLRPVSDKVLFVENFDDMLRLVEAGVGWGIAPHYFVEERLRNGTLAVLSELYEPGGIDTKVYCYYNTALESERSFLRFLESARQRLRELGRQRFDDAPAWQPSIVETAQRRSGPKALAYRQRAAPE
Assay type: binding
Conditions: SPR; Concentration 3.16E-07 M
Measured parameter: Response Unit (RU)
A number alone suffices; assume RU.

IN: Output measured Response Unit (RU) for this item: N#Cc1ccc(NC(=O)CC(=O)Nc2ccc(Br)cc2)cc1 [D42]
OUT: 16.8

###

Assay: DMPK of D88 in mice (plasma)
Assay type: in vivo, mouse
Conditions: male, CD-1, mouse, plasma, iv, 1 mg/kg, IV Injection 1mg/kg; Time 0.67 h; individual animals
Measured parameter: concentration at 0.67 h (ng/mL)
A number alone suffices; assume ng/mL.

IN: Output measured concentration at 0.67 h for this item: N#Cc1ccc(NC(=O)C(F)C(=O)Nc2ccc(Oc3ccccc3)cc2)cc1 (stereo not shown)
OUT: 76.4

###

Tested on: MvfR-regulated small molecules in PA14
Test: Production of HAQs, 2-AA, DHQ and AA in PA14 cultures (LC-MS)
Conditions: PA14, 50µM inhibitor
Measured parameter: % Production PQS (%)
A number alone suffices; assume %.

Chemical structure	Assay target	% Production PQS [%]
Cc1cc(F)ccc1NC(=O)CC(=O)Nc1ccc(C#N)cc1	MvfR-regulated small molecules in PA14	90

IN: Output measured % Production PQS for this item: CC(=O)Nc1ccc(NC(=O)CC(=O)Nc2ccc(C#N)cc2)cc1
OUT: 88

IN: Output measured % Production PQS for this item: N#Cc1ccc(NC(=O)CC(=O)Nc2ccc(F)cc2)cc1
OUT: 47

IN: Output measured % Production PQS for this item: N#Cc1ccc(NC(=O)CC(=O)Nc2ccc(N)cc2)cc1
OUT: 86

IN: Output measured % Production PQS for this item: Cc1cc(F)ccc1OCC(=O)Nc1ccc(C#N)cc1
OUT: 114

###

Each entry below carries its reported inhibition at 10 µM.
System: PA14 AT/P cells
Test: AT/P cells formation assay in PA14
Type: cell-based, Pseudomonas aeruginosa
Conditions: Pseudomonas aeruginosa, PA14, 24 h, read-out: inhibition of AT/P cells formation

Use these answered entries as a reference point.
Compound	Measured parameter	Result
N#Cc1ccc(NC(=O)CC(=O)Nc2ccc(Br)cc2)cc1	inhibition at 10 µM	≥ 76%
N#Cc1ccc(NC(=O)CC(=O)Nc2ccc(Oc3ccccc3)cc2)cc1	inhibition at 10 µM	≥ 76%
N#Cc1ccc(NC(=O)C(F)C(=O)Nc2ccc(Oc3ccccc3)cc2)cc1 (centres unmarked)	inhibition at 10 µM	≥ 76%
N#Cc1ccc(NC(=O)CC(=O)Nc2ccc(Cl)cc2)cc1	inhibition at 10 µM	≥ 76%

Pending compound:
IN: Output measured inhibition at 10 µM for this item: N#Cc1ccc(NC(=O)CC(=O)Nc2ccc(C#N)cc2)cc1
OUT: ≥ 51%

###

Assay: DMPK of D88 in mice (plasma)
Format: in vivo, mouse
Conditions: male, CD-1, mouse; 10 mg/kg SC, plasma
Measured parameter: Tmax (min)
A number alone suffices; assume min.

IN: Output measured Tmax for this item: N#Cc1ccc(NC(=O)C(F)C(=O)Nc2ccc(Oc3ccccc3)cc2)cc1 (stereo not shown)
OUT: 19.8
